# TESTED SYSTEM: human glucagon receptor (human, UniProt P47871 26-477)
# Sequence (P47871 26-477): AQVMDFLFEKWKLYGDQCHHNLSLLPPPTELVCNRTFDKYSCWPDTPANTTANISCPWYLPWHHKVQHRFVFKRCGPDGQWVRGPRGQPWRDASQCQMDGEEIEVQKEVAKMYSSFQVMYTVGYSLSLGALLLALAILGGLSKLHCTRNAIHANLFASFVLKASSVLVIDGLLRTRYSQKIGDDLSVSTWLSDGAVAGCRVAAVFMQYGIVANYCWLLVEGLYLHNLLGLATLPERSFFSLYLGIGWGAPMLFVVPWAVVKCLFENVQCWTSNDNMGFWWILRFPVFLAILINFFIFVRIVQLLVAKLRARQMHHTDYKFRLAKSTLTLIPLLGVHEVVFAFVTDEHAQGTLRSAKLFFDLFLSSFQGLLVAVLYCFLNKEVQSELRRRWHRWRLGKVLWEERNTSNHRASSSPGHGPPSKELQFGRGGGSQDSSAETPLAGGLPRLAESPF
# ASSAY: cell-based or functional assay
Square brackets hold non-standard residues; d marks the D form. Ends that are not written are not given here. mPEG‑MAL 20 kDa = maleimido methoxyPEG of about 20 kDa, linked to the Cys sulfur; mPEG‑MAL 5 kDa = maleimido methoxyPEG of about 5 kDa, linked to the Cys sulfur; PhLac = O=C(O)[C@@H](O)Cc1ccccc1
Please assign f whenever IC50 (nM) (cAMP, inhibit 0.2 mM Glucagon) is at or above 700 nM, and t whenever it is below.

[
  {
    "BINDER": "C(1.2 kDa PEG)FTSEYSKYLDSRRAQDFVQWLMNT-NH2 [[C5(1.2kDaPEG), E9]Glucagon(aa5-29) -NH2]",
    "ANSWER LABEL": "f"
  },
  {
    "BINDER": "[PhLac]TSEYC(mPEG‑MAL 20 kDa)KYLDSRRAQDFVQWLMNT-NH2 [[PLA6, E9, C11(20kDaPEG)]Glucagon(aa6-29)-NH2]",
    "ANSWER LABEL": "t"
  },
  {
    "BINDER": "C(5 kDa PEG)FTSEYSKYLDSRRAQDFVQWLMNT-NH2 [[C5(5kDaPEG), E9]Glucagon(aa5-29) -NH2]",
    "ANSWER LABEL": "f"
  },
  {
    "BINDER": "[PhLac]TSEYSKYLDSRRAQDFVC(mPEG‑MAL 20 kDa)WLMNT-NH2 [[PLA6, E9, C24(20kDaPEG)]Glucagon(aa6-29)-NH2]",
    "ANSWER LABEL": "t"
  },
  {
    "BINDER": "[PhLac]TSEYSKYLDSRRAQDFVC(m‑dPEG24‑MAL)WLMNT-NH2 [[PLA6, E9 ,C24(1.2 kDaPEG)]Glucagon(aa6-29) -NH2]",
    "ANSWER LABEL": "t"
  }
]

Input [PhLac]TC(mPEG‑MAL 5 kDa)EYSKYLDSRRAQDFVQWLMNT-NH2 [[PLA6, C8(5kDaPEG), E9]Glucagon(aa6-29) -NH2] ; condition: IC50 (nM) (cAMP, inhibit 0.2 mM Glucagon) strictly below 700 nM. Does it hold?
t

Input C(3.4 kDa PEG)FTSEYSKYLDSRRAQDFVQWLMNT-NH2 (also: dimer: the two Cys5 joined by 3.4 kDa PEG) [3.4kDaPEG-dimer[C5, E9]Glucagon(aa5-29) -NH2] ; condition: IC50 (nM) (cAMP, inhibit 0.2 mM Glucagon) strictly below 700 nM. Does it hold?
f
